system.under.test: recombinant GSK3β kinase (Homo sapiens (Human), UniProt P49841)
Sequence (P49841 whole entry): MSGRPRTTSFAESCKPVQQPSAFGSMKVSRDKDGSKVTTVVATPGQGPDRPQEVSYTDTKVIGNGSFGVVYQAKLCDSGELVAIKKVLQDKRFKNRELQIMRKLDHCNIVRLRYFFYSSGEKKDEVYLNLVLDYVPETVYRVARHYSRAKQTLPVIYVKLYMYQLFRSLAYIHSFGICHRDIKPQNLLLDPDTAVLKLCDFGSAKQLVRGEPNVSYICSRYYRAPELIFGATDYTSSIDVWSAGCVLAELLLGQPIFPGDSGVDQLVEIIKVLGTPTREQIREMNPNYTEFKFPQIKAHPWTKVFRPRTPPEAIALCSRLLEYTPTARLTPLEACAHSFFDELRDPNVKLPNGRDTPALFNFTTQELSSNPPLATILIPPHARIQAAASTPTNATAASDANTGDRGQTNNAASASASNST
test: GSK3β kinase assay (Ser/Thr 09 peptide Z-lyte FRET);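 also: kinase activity read as coumarin to fluorescein emission ratio, 11-point threefold dilutions from 10 µM to 0.0003 µM in duplicate, unphosphorylated and phosphorylated peptide as 0% and 100% controls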
measurement.setup: 46 μM ATP, 1 h room temperature
property.name: EC50 (nM)
Respond with the bare value in nM.

Answered cases to consult:
• O=C(Nc1cc2cc(-c3cnn(C4CC4)c3)ccc2cn1)C1CCN(CCC(F)(F)F)CC1 = 155
• CC(C)OCCN1CCC(C(=O)Nc2cc3cc(-c4cnn(C)c4)ccc3cn2)CC1 = 42
• [2H]C([2H])([2H])n1cc(-c2ccc3cnc(NC(=O)C4CCN(CCC(F)(F)F)CC4)cc3c2)cn1 = 29
• CN1CCC(N2CCC(C(=O)Nc3cc4cc(-c5cnn(C)c5)ccc4cn3)CC2)CC1 = 55
• Cc1nnc(-c2ccc3cnc(NC(=O)CN4C5CCC4COC5)cc3c2)s1 = 57
• CN1CCC[C@@H]1C(=O)Nc1cc2cc(-c3cnn(C)c3)ccc2cn1 = 35
• Cc1ncc(-c2ccc3cnc(NC(=O)C4(F)CC4)cc3c2)n1C = 710

The record that follows has no EC50 shown yet.
recombinant GSK3β kinase (Homo sapiens (Human), UniProt P49841) / EC50 / Cc1ncc(-c2ccc3cnc(NC(=O)CN4CCOCC4)cc3c2)s1 : value?
110
